test_details: Inhibitory concentration against methionyl-tRNA synthetase was determined by measuring decrease of the aminoacylation product [35S]- methionyl tRNA of Escherichia coli
pIC50: −log10 of the molar value.
quantity_measured: pIC50

{"smiles_text": "COc1cc(C2=N[C@@H](COC(=O)[C@@H](N)CCSC)CO2)ccc1O", "quantity_measured": "pIC50", "recorded_result": 4.41}
